molecular target: Abl kinase (h) (Homo sapiens (Human)); test: Cerep kinase profiling, HTRF assay, Abl kinase; assay type: biochemical; conditions: Table 6; compound incubated at 10 μM; read-out: Percentage inhibition of kinase Abl
Sequence (P00519 whole entry): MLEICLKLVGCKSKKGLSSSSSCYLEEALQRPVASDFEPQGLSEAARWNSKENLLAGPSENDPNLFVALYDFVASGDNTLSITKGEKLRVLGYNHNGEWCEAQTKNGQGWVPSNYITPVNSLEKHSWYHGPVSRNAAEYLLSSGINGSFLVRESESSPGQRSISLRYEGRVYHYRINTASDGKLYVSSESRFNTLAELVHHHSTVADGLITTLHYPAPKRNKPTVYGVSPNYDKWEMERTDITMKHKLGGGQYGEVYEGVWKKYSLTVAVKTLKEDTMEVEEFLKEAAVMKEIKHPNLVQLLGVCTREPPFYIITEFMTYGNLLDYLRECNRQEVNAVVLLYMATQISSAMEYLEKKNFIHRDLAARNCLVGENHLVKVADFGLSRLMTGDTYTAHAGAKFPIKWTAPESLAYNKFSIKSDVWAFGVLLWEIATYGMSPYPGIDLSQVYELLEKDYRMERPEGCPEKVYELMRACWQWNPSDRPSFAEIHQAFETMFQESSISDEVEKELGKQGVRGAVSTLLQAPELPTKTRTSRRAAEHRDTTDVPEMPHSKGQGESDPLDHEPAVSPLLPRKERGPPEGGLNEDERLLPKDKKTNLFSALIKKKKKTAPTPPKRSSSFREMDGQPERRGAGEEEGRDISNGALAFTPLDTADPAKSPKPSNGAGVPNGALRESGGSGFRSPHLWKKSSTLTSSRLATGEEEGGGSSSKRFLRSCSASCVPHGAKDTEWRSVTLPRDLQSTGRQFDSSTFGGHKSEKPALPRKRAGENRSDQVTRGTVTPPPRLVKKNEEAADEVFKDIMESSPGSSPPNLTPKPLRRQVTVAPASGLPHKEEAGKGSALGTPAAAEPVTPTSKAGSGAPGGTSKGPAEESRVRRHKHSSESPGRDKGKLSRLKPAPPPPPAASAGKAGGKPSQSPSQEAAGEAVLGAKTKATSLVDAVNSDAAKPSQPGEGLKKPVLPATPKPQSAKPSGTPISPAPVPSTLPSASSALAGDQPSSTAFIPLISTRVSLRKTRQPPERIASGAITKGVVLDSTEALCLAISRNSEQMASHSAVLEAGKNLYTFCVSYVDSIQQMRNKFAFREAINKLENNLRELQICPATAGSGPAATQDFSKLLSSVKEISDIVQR
measurement kind: inhibition at 10 µM (%)

Below, 8 compounds whose answers are already recorded.
{"compound": "COc1cccc(NCc2cc3cc(NC(=O)c4ccccc4Br)cnc3[nH]2)c1", "measurement kind": "inhibition at 10 µM", "unit string": "%", "reported result": 14}
{"compound": "NC(=O)c1cc2cc(NC(=O)c3cccc(F)c3)cnc2[nH]1", "measurement kind": "inhibition at 10 µM", "unit string": "%", "reported result": 10}
{"compound": "COC(=O)c1cc2cc(NC(=O)c3cccnc3)cnc2[nH]1", "measurement kind": "inhibition at 10 µM", "unit string": "%", "reported result": 27}
{"compound": "O=C(Nc1cnc2[nH]c(CNCc3ccccc3)cc2c1)c1ccccc1Br", "measurement kind": "inhibition at 10 µM", "unit string": "%", "reported result": 14}
{"compound": "O=C(Nc1cnc2[nH]c(Cn3ccnc3)cc2c1)c1ccccc1Br", "measurement kind": "inhibition at 10 µM", "unit string": "%", "reported result": 86}
{"compound": "O=C(Nc1cnc2[nH]c(CNc3cccc(Br)c3)cc2c1)c1ccccc1Br", "measurement kind": "inhibition at 10 µM", "unit string": "%", "reported result": 29}
{"compound": "COC(=O)c1cc2cc(NC(=O)c3cccc(F)c3)cnc2[nH]1", "measurement kind": "inhibition at 10 µM", "unit string": "%", "reported result": 33}
{"compound": "Cc1cccc(NCc2cc3cc(NC(=O)c4ccccc4Br)cnc3[nH]2)c1", "measurement kind": "inhibition at 10 µM", "unit string": "%", "reported result": 21}

I = O=C(Nc1cnc2[nH]c(C(=O)NCCN3CCOCC3)cc2c1)c1cccc(F)c1
II = COC(=O)c1cc2cc(NC(=O)c3ccccc3Oc3ccccc3)cnc2[nH]1
III = O=C(Nc1cnc2[nH]c(CO)cc2c1)c1ccccc1Br
IV = CC1CCCCC1NCc1cc2cc(NC(=O)c3ccccc3Br)cnc2[nH]1 (centres unmarked)
V = CCCSc1ncccc1C(=O)Nc1cnc2[nH]c(C(=O)OC)cc2c1
Query :: Returns the items ordered by inhibition at 10 µM, from maximum to minimum. // respond by listing labels in the order requested
Result :: III, I, V, IV, II

A = CN(C)CCCNC(=O)c1cc2cc(NC(=O)c3ccccc3Br)cnc2[nH]1
B = N#Cc1ccccc1NCc1cc2cc(NC(=O)c3ccccc3Br)cnc2[nH]1
Query :: Problem: Given the entries A and B , determine which has the lower reported inhibition at 10 µM. Use the label to indicate which entry you chose.
Result :: B
(B: 47%, A: 100%)
